B1: Unconventional myosin-Ie, residues 1051 to 1108; numbered along this chain, Q12965 (parent)
chain: PQVPQCKALYAYDAQDTDELSFNANDIIDIIKEDPSGWWTGRLRGKQGLFPNNYVTKI

variants of: B1; test: abundance fitness (aPCA) (normalised: wild type 0, dead -1); higher = more abundant; growth selection in yeast, the domain comes from the species named; conditions: Homo sapiens
Short version: abundance fitness at least -0.5 is true (1), less is false (0).

Recorded results for 4 variants are shown here.
{"columns": ["variantSpec", "groupLabel"],
 "data": [
  ["A14S", "true (1)"],
  ["V55N", "false (0)"],
  ["S21G", "true (1)"],
  ["V55E", "false (0)"]
]}

Entry `L49T` : is its abundance fitness no less than -0.5?
true (1)

Dear colleague, could you confirm whether `D13N` has abundance fitness at or above -0.5?
true (1)

Given `Y10D` , state whether its abundance fitness is at least -0.5.
true (1)
